# Tested on: SEM cells
# Protocol Notes: cell viability relative to DMSO control; higher = less cytotoxic
# Measurement Setup: HPLM + 10% dialyzed FBS; 48 h; 1.71 µM
Metric Name: cell viability
Param answer (str): number followed by unit.

[
  {
    "Compound": "CC[C@H](NC1=C2N=C[NH]C2=NC=N1)C/3=N/C4=C(C(=CC=C4)F)C(=O)N3C5=CC=CC=C5",
    "Metric Name": "cell viability",
    "Test Result": "106%"
  },
  {
    "Compound": "COc1cc(F)c(F)c(Nc2ccc(I)cc2F)c1N[S+](=O)([O-])C1(C[C@H](O)CO)CC1",
    "Metric Name": "cell viability",
    "Test Result": "89.9%"
  },
  {
    "Compound": "C[N]1C=C(C=N1)C2=C3\\C=N/NC(=O)C4=C3C(=CC(=C4)NC(=O)[C@H](N)C5CCCCC5)[NH]2",
    "Metric Name": "cell viability",
    "Test Result": "58.3%"
  },
  {
    "Compound": "N[S+]([O-])(=O)C1=CC=C(NC/2=C/C(=O)C3=CC=CC=C3C2=O)C=C1",
    "Metric Name": "cell viability",
    "Test Result": "110%"
  },
  {
    "Compound": "COc1ccc([C@@H]2CC(=O)c3c(O)cc(O[C@@H]4O[C@H](CO[C@@H]5O[C@@H](C)[C@H](O)[C@@H](O)[C@H]5O)[C@@H](O)[C@H](O)[C@H]4O)cc3O2)cc1O",
    "Metric Name": "cell viability",
    "Test Result": "102%"
  }
]

Give cell viability for all compounds that follow.
1. C[C@H]1C[C@@H]2[C@H](CC[C@@]3(C)[C@H]2CC[C@]3(OC(C)=O)C(C)=O)[C@@]\4(C)CCC(=O)\C=C14
2. C[C@H]1COC2=C3N1\C=C(C(O)=O)/C(=O)C3=CC(=C2N4CCN(C)CC4)F
3. COc1cc(OC2CCN(C)CC2)ccc1Nc1ncc2c(n1)n(C1CCCC1)c(=O)n2C
4. CN1CCN(C2=Nc3cc(Cl)ccc3Nc3ccccc32)CC1
5. CC1(C)O[C@@H]2C[C@H]3[C@@H]4C[C@H](F)C5=CC(=O)C=C[C@]5(C)[C@@]4(F)[C@@H](O)C[C@]3(C)[C@]2(C(=O)CO)O1

87.6%
68.7%
64.7%
121%
44.9%
